System: Math1 enhancer and minimal promoter Luciferase reporter in HEK cells
Assay: Math1 Luciferase reporter assay in HEK cells
Assay type: cell-based, human
Details: Homo sapiens, HEK293; read-out: Maximum (Fold DMSO)
Would you please tag the item Yes when its maximal fold induction is 2 or above, and No when it is below?

{"compound": "c1ccc(OCc2nc(-c3ccccn3)no2)cc1", "test_system": "Math1 enhancer and minimal promoter Luciferase reporter in HEK cells", "discrete_label": "No"}

Ask: Hi team, for "O=C(CSc1nc2ccccc2c(=O)n1NC(=O)c1ccccc1)c1ccc(F)cc1" , is the recorded maximal fold induction at or above 2?
Reply: Yes

Ask: Continue with "CS(=O)(=O)n1nccc1-c1ccc(-c2ccc(F)cc2F)o1"
Reply: No

###

Tested on: Math1 enhancer and minimal promoter Luciferase reporter in HEK cells
Test: Math1 Luciferase reporter assay in HEK cells
Type: cell-based, human
Conditions: Homo sapiens, HEK293; read-out: IC50
outcome_measure: IC50 (nM)
Answer with a number only, understood to be in nM.

Would you please look over these solved cases?
{"compound": "Cc1oc(C(C)(C)C)cc1-c1cc(NC(=O)c2ccccc2)[nH]n1 [CP-0104765]", "test_system": "Math1 enhancer and minimal promoter Luciferase reporter in HEK cells", "unit": "nM", "recorded_result": 400}
{"compound": "NC(=O)c1sc2nc3c(cc2c1N)CCCCC3 [CP-0066751]", "test_system": "Math1 enhancer and minimal promoter Luciferase reporter in HEK cells", "unit": "nM", "recorded_result": 1000}
{"compound": "CCc1c(C)[nH]c2cc(-c3ccc(Cl)cc3)nn2c1=O [CP-0063375]", "test_system": "Math1 enhancer and minimal promoter Luciferase reporter in HEK cells", "unit": "nM", "recorded_result": 2200}
{"compound": "COc1cccc(C(=O)Nc2nc3ccc(F)cc3s2)c1 [CP-0107060]", "test_system": "Math1 enhancer and minimal promoter Luciferase reporter in HEK cells", "unit": "nM", "recorded_result": 100}
{"compound": "Fc1ccccc1-c1noc(NCCCN2CCCCC2)n1 [CP-0130665]", "test_system": "Math1 enhancer and minimal promoter Luciferase reporter in HEK cells", "unit": "nM", "recorded_result": 300}

Ask: Find the recorded IC50 belonging to Cc1cccc(-c2nc3cc(C)ccc3o2)c1 [CP-0103978, 5-methyl-2-m-tolylbenzo[d]oxazole] and report it.
Reply: 1000

Ask: Continue with COc1ccccc1-c1nc(-c2ccc(C)cc2)no1 [CP-0067246]
Reply: 1800

Ask: Continue with O=C(NCC1CCCO1)c1sc2ccccc2c1Cl (stereo not shown) [CP-0068577]
Reply: 1000

Ask: Continue with Oc1ccc(-c2nc3ccccc3[nH]2)cc1 [CP-0047659, 4-(1H-benzo[d]imidazol-2-yl)phenol]
Reply: 1300

Ask: Continue with NC(=O)c1c(NC(=O)c2cc3ccccc3o2)sc2c1CCC2 [CP-0087336]
Reply: 80

Ask: Continue with CC(C)COc1ccc(C2Nc3ccccc3C(=O)N2c2ccc3ccccc3c2)cc1 (stereo not shown) [CP-0034360]
Reply: 1000

Ask: Continue with Nc1nc(-c2ccc(-c3ccccc3)cc2)cs1 [CP-0072036, 4-(biphenyl-4-yl) thiazol-2-amine]
Reply: 1500

Ask: Continue with Cc1ccc2nc(-c3cc4ccccc4oc3=N)[nH]c2c1 [CP-0091818]
Reply: 900

Ask: Continue with COc1ccc(-c2csc(-c3c(C)noc3N)n2)cc1 [CP-0105343]
Reply: 3000
